Target: T1, recombinant human CD3 (human CD3eg linker) (Homo sapiens, UniProt P07766+P09693)
T1 construct: made in house; host or cells: FreeStyle293F
T1 sequence (P07766+P09693 fused): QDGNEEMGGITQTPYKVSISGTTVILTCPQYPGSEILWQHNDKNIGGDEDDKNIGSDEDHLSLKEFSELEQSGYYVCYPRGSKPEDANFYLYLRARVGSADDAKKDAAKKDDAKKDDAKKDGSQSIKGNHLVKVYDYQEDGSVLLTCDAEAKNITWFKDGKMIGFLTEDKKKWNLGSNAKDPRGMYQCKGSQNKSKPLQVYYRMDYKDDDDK
Experiment: Biacore T200 SPR affinity of Dual-Fab antibodies to human CD3
Format: binding
Details: 25 degrees C, pH 7.4
experimental_endpoint: CD3 Kon (M⁻¹ s⁻¹)
Just the number please, in M⁻¹ s⁻¹, no unit attached.

CD3 Kon reading for H1643L0581: affinity matured Dual-Fab variant, VH SEQ ID NO 95, VL SEQ ID NO 143 (antibody, V domains shown) VH: QVQLVESGGGLVQPGRSLRLSCAASGFKFSNVWFHWVRQAPGKGLEWVAQIKDYYNAYAAYYAPSVKGRFTISRDDSKNSIYLQMNSLKTEDTAVYYCHYVHYASASTLLPAEGVDAWGQGTTVTVSS VL: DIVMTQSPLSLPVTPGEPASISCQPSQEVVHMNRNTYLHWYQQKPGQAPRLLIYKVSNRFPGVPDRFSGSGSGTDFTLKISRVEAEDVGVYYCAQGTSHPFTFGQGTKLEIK : 94600

CD3 Kon reading for H1652L0943: affinity matured Dual-Fab variant, VH SEQ ID NO 99, VL SEQ ID NO 146 (antibody, V domains shown) VH: QVQLVESGGGLVQPGRSLRLSCAASGFVFSNVWFHWVRQAPGKGLEWVAQIKDYYNAYADYYAPSVEGRFTISRDDSKNSIYLQMNSLKTEDTAVYYCHYVHYASASTLLPAEGVDAWGQGTTVTVSS VL: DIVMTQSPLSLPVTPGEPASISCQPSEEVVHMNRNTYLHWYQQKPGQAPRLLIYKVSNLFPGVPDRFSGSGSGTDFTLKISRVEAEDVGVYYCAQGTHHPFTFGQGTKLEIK : 62300

CD3 Kon reading for H2594L0581: affinity matured Dual-Fab variant, VH SEQ ID NO 102, VL SEQ ID NO 143 (antibody, V domains shown) VH: QVQLVESGGGLVQPGRSLRLSCAASGFKFSNVWFHWVRQAPGKGLEWVAQIKDYYNAYAGYYHPSVKGRFTISRDDSKNSIYLQMNSLKTEDTAVYYCHYVHYAAASQLLPAEGVDAWGQGTTVTVSS VL: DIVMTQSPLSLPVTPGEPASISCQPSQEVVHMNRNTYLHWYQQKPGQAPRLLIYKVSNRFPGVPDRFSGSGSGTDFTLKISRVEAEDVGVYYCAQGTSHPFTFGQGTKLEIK : 98300

CD3 Kon reading for H1649L0943: affinity matured Dual-Fab variant, VH SEQ ID NO 97, VL SEQ ID NO 146 (antibody, V domains shown) VH: QVQLVESGGGLVQPGRSLRLSCAASGFVFSNVWFHWVRQAPGKGLEWVAQIKDKYNAYADYYAPSVKERFTISRDDSKNSIYLQMNSLKTEDTAVYYCHYVHYASASTLLPAEGVDAWGQGTTVTVSS VL: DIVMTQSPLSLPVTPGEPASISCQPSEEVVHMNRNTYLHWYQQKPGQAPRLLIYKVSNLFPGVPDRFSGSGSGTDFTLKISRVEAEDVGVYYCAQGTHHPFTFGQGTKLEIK : 61000
